System: SW-620
assay.method.text: NCI-60 one-dose screening
Format: cell-based
condition.label: Homo sapiens, SW-620, Colon Cancer, read-out: GI (%)
Record form. Attribute: inhibition at 10 µM. Fill in for each entry.
Write it as a number; the unit % goes unstated.

Query :: Hello, I am looking for reported inhibition at 10 µM with SW-620 for COc1cc(/C=C2/C(=O)Nc3cc(Cl)ccc32)ccc1OCc1ccc(F)cc1 . Could you help?
Result :: 1.76

Query :: Try this compound next: COc1cc(C=C2C(=O)Nc3ccc(Cl)cc32)ccc1OCc1ccc(F)cc1 (mixture of isomers)
Result :: 40.3

Query :: Try this compound next: COc1cc(/C=C2/C(=O)Nc3cc(Cl)ccc32)ccc1OCc1ccccn1
Result :: 0.42

Query :: Try this compound next: COc1cc(/C=C2/C(=O)Nc3ccc(Cl)cc32)ccc1OCc1ccccc1
Result :: 4.03

Query :: Try this compound next: COc1cc(/C=C2/C(=O)Nc3ccccc32)ccc1OCc1ccc(F)cc1
Result :: -5.55

Query :: Try this compound next: COc1cc(/C=C2/C(=O)Nc3cc(Cl)ccc32)ccc1OCc1ccccc1
Result :: 2.54

Query :: Try this compound next: COc1cc(C=C2C(=O)Nc3ccc(Cl)cc32)ccc1OCc1ccc(Cl)cc1 (mixture of isomers)
Result :: 23

Query :: Try this compound next: COc1cc(C=C2C(=O)Nc3ccccc32)ccc1O (mixture of isomers)
Result :: -0.49

Query :: Try this compound next: COc1cc(C=C2C(=O)Nc3cc(Cl)ccc32)ccc1OCc1ccc(Cl)cc1 (mixture of isomers)
Result :: 2.57
